Listed next: entries and their corresponding variant/HC_K99L.
target_under_test: T1, human tissue factor pathway inhibitor (TFPI) (human, UniProt P10646 29-304, limits assumed)
T1 construct: bought; also called hTFPI; human TFPI
T1 sequence (looked up): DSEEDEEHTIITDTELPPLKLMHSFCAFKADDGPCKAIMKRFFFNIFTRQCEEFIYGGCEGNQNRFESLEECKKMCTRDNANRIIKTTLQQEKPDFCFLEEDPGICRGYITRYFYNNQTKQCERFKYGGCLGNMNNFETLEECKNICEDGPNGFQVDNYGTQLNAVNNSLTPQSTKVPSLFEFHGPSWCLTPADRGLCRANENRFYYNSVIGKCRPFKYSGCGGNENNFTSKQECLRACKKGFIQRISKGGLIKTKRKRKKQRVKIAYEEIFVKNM
assay_details: competitive ELISA
endpoint: variant/HC_K99L (ratio)

binder	reported_measurement
2A8 HC S35D+S55R+K99L/LC H33Y+Y48F+N51V+D91W (Fab, V domains shown) VH: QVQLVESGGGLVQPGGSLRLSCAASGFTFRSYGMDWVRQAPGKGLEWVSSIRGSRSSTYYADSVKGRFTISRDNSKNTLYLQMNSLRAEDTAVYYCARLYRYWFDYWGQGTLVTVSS VL: DIELTQPPSVSVAPGQTARISCSGDNLRNYYAYWYQQKPGQAPVVVIFYDVNRPSGIPERFSGSNSGNTATLTISGTQAEDEADYYCQSWWDGVPVFGGGTKLTVLG	14
2A8 HC S35D+S50A+K99L/LC Y48F+D91L+V96W (Fab, V domains shown) VH: QVQLVESGGGLVQPGGSLRLSCAASGFTFRSYGMDWVRQAPGKGLEWVSAIRGSSSSTYYADSVKGRFTISRDNSKNTLYLQMNSLRAEDTAVYYCARLYRYWFDYWGQGTLVTVSS VL: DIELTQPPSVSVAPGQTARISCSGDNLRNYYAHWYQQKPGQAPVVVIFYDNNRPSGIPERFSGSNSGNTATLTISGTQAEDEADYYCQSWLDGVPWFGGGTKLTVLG	4
2A8 HC S35D+S55R+K99L/LC A13S+Y48F+N51V+D91W (Fab, V domains shown) VH: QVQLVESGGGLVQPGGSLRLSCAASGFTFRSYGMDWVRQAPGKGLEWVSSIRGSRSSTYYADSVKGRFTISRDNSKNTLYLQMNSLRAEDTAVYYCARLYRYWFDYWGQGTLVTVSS VL: DIELTQPPSVSVSPGQTARISCSGDNLRNYYAHWYQQKPGQAPVVVIFYDVNRPSGIPERFSGSNSGNTATLTISGTQAEDEADYYCQSWWDGVPVFGGGTKLTVLG	20.1
2A8 HC S35D+S55R+K99L/LC Y48F+N51V+D91W+D92S (Fab, V domains shown) VH: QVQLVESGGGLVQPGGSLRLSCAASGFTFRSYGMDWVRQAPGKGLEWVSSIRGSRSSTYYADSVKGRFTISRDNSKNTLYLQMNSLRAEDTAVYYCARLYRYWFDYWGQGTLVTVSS VL: DIELTQPPSVSVAPGQTARISCSGDNLRNYYAHWYQQKPGQAPVVVIFYDVNRPSGIPERFSGSNSGNTATLTISGTQAEDEADYYCQSWWSGVPVFGGGTKLTVLG	23.9
2A8 HC S31V+G33P+S35D/LC Y48F+D91L+V96W (Fab, V domains shown) VH: QVQLVESGGGLVQPGGSLRLSCAASGFTFRVYPMDWVRQAPGKGLEWVSSIRGSSSSTYYADSVKGRFTISRDNSKNTLYLQMNSLRAEDTAVYYCARKYRYWFDYWGQGTLVTVSS VL: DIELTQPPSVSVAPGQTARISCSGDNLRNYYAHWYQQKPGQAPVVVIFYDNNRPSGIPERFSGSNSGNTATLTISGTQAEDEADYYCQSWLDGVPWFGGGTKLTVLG	22.5
2A8-216 (HC S31V+I51D+S55R+K99V/LC Y48F+D91L+V96W) (Fab, V domains shown) VH: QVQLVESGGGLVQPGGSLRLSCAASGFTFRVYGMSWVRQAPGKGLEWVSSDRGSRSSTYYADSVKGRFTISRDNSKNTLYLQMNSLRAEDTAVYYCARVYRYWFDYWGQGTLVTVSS VL: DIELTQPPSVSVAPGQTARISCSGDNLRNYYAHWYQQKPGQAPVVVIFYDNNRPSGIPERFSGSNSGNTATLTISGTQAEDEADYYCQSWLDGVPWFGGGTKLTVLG	16.4
2A8 HC S31V+S35D+S54F/LC Y48F+D91L+V96W (Fab, V domains shown) VH: QVQLVESGGGLVQPGGSLRLSCAASGFTFRVYGMDWVRQAPGKGLEWVSSIRGFSSSTYYADSVKGRFTISRDNSKNTLYLQMNSLRAEDTAVYYCARKYRYWFDYWGQGTLVTVSS VL: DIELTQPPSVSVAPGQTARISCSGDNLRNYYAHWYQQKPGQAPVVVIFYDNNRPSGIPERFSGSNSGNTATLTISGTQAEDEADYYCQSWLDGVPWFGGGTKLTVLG	5.4
2A8 HC S35D+K99L/LC Y48F+D91L+D92S+V96W (Fab, V domains shown) VH: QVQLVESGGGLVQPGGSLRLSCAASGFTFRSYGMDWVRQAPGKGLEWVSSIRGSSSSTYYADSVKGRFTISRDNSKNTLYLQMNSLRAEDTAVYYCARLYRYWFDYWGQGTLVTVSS VL: DIELTQPPSVSVAPGQTARISCSGDNLRNYYAHWYQQKPGQAPVVVIFYDNNRPSGIPERFSGSNSGNTATLTISGTQAEDEADYYCQSWLSGVPWFGGGTKLTVLG	20.7
2A8 HC S35D+S55R+K99L/LC N29K+Y48F+N51V+D91W (Fab, V domains shown) VH: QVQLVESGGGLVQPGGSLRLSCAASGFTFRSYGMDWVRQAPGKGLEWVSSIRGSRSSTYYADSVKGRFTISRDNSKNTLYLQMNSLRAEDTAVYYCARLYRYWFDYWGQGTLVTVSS VL: DIELTQPPSVSVAPGQTARISCSGDNLRKYYAHWYQQKPGQAPVVVIFYDVNRPSGIPERFSGSNSGNTATLTISGTQAEDEADYYCQSWWDGVPVFGGGTKLTVLG	20
2A8 HC S35D+K99L/LC Y48F+D91L+G93S+V96W (Fab, V domains shown) VH: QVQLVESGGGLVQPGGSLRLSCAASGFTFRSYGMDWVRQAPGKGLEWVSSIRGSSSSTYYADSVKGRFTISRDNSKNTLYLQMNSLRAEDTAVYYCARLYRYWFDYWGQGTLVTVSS VL: DIELTQPPSVSVAPGQTARISCSGDNLRNYYAHWYQQKPGQAPVVVIFYDNNRPSGIPERFSGSNSGNTATLTISGTQAEDEADYYCQSWLDSVPWFGGGTKLTVLG	14.2
